assay.system: UniProtKB O42713
Sequence (O42713 whole entry): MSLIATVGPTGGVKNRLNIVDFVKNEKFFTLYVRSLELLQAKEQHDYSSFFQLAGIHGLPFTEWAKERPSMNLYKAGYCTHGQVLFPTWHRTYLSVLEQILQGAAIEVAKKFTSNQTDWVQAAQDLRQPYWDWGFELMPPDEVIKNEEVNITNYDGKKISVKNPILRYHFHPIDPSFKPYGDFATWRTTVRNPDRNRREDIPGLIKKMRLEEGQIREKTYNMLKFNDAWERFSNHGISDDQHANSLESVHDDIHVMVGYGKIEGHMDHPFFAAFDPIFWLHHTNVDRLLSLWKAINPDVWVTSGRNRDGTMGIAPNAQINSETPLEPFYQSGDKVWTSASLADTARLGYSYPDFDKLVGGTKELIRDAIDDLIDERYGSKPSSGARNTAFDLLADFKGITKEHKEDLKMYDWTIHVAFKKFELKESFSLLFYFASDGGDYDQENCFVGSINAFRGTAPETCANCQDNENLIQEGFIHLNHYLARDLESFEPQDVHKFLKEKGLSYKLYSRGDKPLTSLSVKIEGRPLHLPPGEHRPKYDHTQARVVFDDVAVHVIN
protocol.text: Binding affinity to mushroom tyrosinase assessed as fluorescence quenching
endpoint.label: KSV (×10³ /M)
Return type: number; implicit unit ×10³ /M.

stdin: Sample CCc1cc(C(N)=S)ccn1 [ETHIONAMIDE] — what was its KSV?
stdout: 9.5

stdin: Sample `CC(=S)Nc1ccccc1` — what was its KSV?
stdout: 8.3

stdin: Sample `NC(=S)c1cccnc1` — what was its KSV?
stdout: 8.5

stdin: Sample CCCc1cc(C(N)=S)ccn1 [PROTIONAMIDE] — what was its KSV?
stdout: 10.2

stdin: Sample `NC(=S)c1ccccn1` — what was its KSV?
stdout: 9

stdin: Sample `NC(=S)c1ccncc1` — what was its KSV?
stdout: 7.5

stdin: Sample `NNC(=O)c1ccncc1` — what was its KSV?
stdout: 1.7

stdin: Sample `NC(=S)c1ccccc1` — what was its KSV?
stdout: 9.2

stdin: Sample `NC(=S)Nc1ccccc1` — what was its KSV?
stdout: 2.4

stdin: Sample CC(=O)Nc1ccccc1 [ACETANILIDE] — what was its KSV?
stdout: 1

Where do the numbers come from? From ChEMBL document CHEMBL3739382.
